# Tested on: HL-60 cells
# Experiment Summary: RNA synthesis ([3H]uridine incorporation) in HL-60 cells
# Format: cell-based
# Recorded Conditions: Homo sapiens; cultured HL-60 cells incubated for 2 hours; read-out: 50% inhibitory activity on the incorporation of [3H]-uridine
Measurement Label: pIC50
Numbers only, as −log10 of the molar value.

{"Compound": "CC(=O)OC1CCC2(C)C(CCC3C4(C)CCC5(C)CCC(C)C(C)C5C4=CC(=O)C32C)C1(C)C(=O)O (stereo not drawn) [IV, Acetyl-11-keto-β-Boswellic Acid]", "pIC50": 6.30}
{"Compound": "CC1CCC2(C)CCC3(C)C(=CCC4(C)C3CCC3C(C)(C(=O)O)C(O)CCC34C)C2C1C (stereo not drawn) [I, β-Boswellic Acid]", "pIC50": 5.15}
{"Compound": "CC(=O)OC1CCC2(C)C(CCC3C4(C)CCC5(C)CCC(C)C(C)C5C4=CCC32C)C1(C)C(=O)O (stereo not drawn) [II, Acetyl-β-Boswellic Acid]", "pIC50": 5.64}

Now take the following compound into account.
Query: Give its pIC50 value. Item: CC1CCC2(C)CCC3(C)C(=CC(=O)C4(C)C3CCC3C(C)(C(=O)O)C(O)CCC34C)C2C1C (stereo not drawn) [III, 11-keto-β-Boswellic Acid]
Reply: 5.66

These data points were gathered from patent US20060234990A1.
